TARGET OR TEST SYSTEM: cloned human or rodent CNS receptors, channels, and transporters (PDSP panel) (Homo sapiens, UniProt P18089)
Construct: expressed in transfected cells
Sequence (P18089 1-450): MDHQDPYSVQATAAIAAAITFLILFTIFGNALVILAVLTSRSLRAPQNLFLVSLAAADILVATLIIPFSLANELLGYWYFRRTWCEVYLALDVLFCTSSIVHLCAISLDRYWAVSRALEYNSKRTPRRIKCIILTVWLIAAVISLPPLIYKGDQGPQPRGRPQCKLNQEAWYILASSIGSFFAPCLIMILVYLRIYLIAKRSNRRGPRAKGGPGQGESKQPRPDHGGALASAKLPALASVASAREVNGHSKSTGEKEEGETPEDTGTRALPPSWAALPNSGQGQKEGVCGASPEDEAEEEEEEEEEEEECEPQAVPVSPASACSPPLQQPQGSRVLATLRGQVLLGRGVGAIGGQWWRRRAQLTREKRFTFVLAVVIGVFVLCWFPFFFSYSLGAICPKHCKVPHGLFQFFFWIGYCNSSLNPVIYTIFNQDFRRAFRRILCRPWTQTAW
METHOD DESCRIPTION: PDSP GPCR panel primary binding assays at 10 μM
DETAILS: Alpha2B; primary assay, replicate 4
PROPERTY MEASURED: Inhibition 4 (%)

>>> numeric_value("CC(=O)N1CCC(NC(=O)NC23CC4CC(CC(C4)C2)C3)CC1 [UNC10302683A, AR9281]")
8.7
>>> numeric_value("CCC(=O)N1CCC(NC(=O)Nc2ccc(OC(F)(F)F)cc2)CC1 [UNC10302681A, TPPU]")
9.47
>>> numeric_value("O=C(NC1CC1)C(=O)C(Cc1ccccc1)NC(=O)[C@H]1CCC(=O)N1Cc1ccccc1 (stereo partly shown) [UNC10302676A, ABT-957 (Alicapistat)]")
10.08
>>> numeric_value("CNc1nc(C)nc(N[C@H]2CCC[C@@H](C(=O)NCc3ccc(C#N)cc3C(F)(F)F)C2)n1 [UNC10302679A, GSK2256294A]")
22.22

###

Item-by-item account of Inhibition 3
TARGET OR TEST SYSTEM: cloned human or rodent CNS receptors, channels, and transporters (PDSP panel) (Homo sapiens)
Construct: expressed in transfected cells
METHOD DESCRIPTION: PDSP GPCR panel primary binding assays at 10 μM
DETAILS: Receptor 5-HT2C; primary assay, 10 μM
PROPERTY MEASURED: Inhibition 3

>>> result("c1cn2cc(-c3ccc4cn[nH]c4c3)nc(Nc3ccc(N4CCOCC4)cc3)c2n1 [UNC10302678A, Entospletinib (GS-9973)]")
"-17.18%"
>>> result("Cl.NC(=O)c1cnc(N[C@@H]2CCCC[C@@H]2N)nc1Nc1cccc(-n2nccn2)c1 [UNC10302682A, P505-15 (PRT06207 HCl)]")
"67.73%"
>>> result("CCCCNc1ncc2c(-c3ccc(CN4CCN(C)CC4)cc3)cn([C@H]3CC[C@H](O)CC3)c2n1 [UNC2025C, UNC2025]")
"31.41%"
>>> result("O=c1oc2ccccc2cc1-c1cn2cc(Cc3ccc(F)cc3)sc2n1 [UNC10302680A, iMDK]")
"-21.1%"

###

TARGET OR TEST SYSTEM: cloned human or rodent CNS receptors, channels, and transporters (PDSP panel) (Homo sapiens)
Construct: expressed in transfected cells
METHOD DESCRIPTION: PDSP GPCR panel primary binding assays at 10 μM
DETAILS: 5-HT7A; primary assay, replicate 2
Item-by-item account of Inhibition 2
PROPERTY MEASURED: Inhibition 2 (%)

>>> numeric_value("CNc1nc(C)nc(N[C@H]2CCC[C@@H](C(=O)NCc3ccc(C#N)cc3C(F)(F)F)C2)n1 [UNC10302679A, GSK2256294A]")
51.06
>>> numeric_value("CCC(=O)N1CCC(NC(=O)Nc2ccc(OC(F)(F)F)cc2)CC1 [UNC10302681A, TPPU]")
16.81
>>> numeric_value("CC(=O)N1CCC(NC(=O)NC23CC4CC(CC(C4)C2)C3)CC1 [UNC10302683A, AR9281]")
29.98
>>> numeric_value("O=C(NC1CC1)C(=O)C(Cc1ccccc1)NC(=O)[C@H]1CCC(=O)N1Cc1ccccc1 (stereo partly shown) [UNC10302676A, ABT-957 (Alicapistat)]")
21.46

###

TARGET OR TEST SYSTEM: cloned human or rodent CNS receptors, channels, and transporters (PDSP panel) (Homo sapiens)
Construct: expressed in transfected cells
METHOD DESCRIPTION: PDSP GPCR panel primary binding assays at 10 μM
DETAILS: Receptor 5-HT3; primary assay, 10 μM; mean of Inhibition 1-4
Item-by-item account of Mean %
PROPERTY MEASURED: Mean %

>>> result("Cl.NC(=O)c1cnc(N[C@@H]2CCCC[C@@H]2N)nc1Nc1cccc(-n2nccn2)c1 [UNC10302682A, P505-15 (PRT06207 HCl)]")
"73.16%"
>>> result("O=c1oc2ccccc2cc1-c1cn2cc(Cc3ccc(F)cc3)sc2n1 [UNC10302680A, iMDK]")
"15.02%"
>>> result("c1cn2cc(-c3ccc4cn[nH]c4c3)nc(Nc3ccc(N4CCOCC4)cc3)c2n1 [UNC10302678A, Entospletinib (GS-9973)]")
"17.33%"
>>> result("CCCCNc1ncc2c(-c3ccc(CN4CCN(C)CC4)cc3)cn([C@H]3CC[C@H](O)CC3)c2n1 [UNC2025C, UNC2025]")
"23.9%"

###

TARGET OR TEST SYSTEM: cloned human or rodent CNS receptors, channels, and transporters (PDSP panel) (Homo sapiens)
Construct: expressed in transfected cells
METHOD DESCRIPTION: PDSP GPCR panel primary binding assays at 10 μM
DETAILS: Alpha2B; primary assay, replicate 2
Item-by-item account of Inhibition 2
PROPERTY MEASURED: Inhibition 2 (%)

>>> numeric_value("O=C(NC1CC1)C(=O)C(Cc1ccccc1)NC(=O)[C@H]1CCC(=O)N1Cc1ccccc1 (stereo partly shown) [UNC10302676A, ABT-957 (Alicapistat)]")
17.34
>>> numeric_value("CCC(=O)N1CCC(NC(=O)Nc2ccc(OC(F)(F)F)cc2)CC1 [UNC10302681A, TPPU]")
8.98
>>> numeric_value("CC(=O)N1CCC(NC(=O)NC23CC4CC(CC(C4)C2)C3)CC1 [UNC10302683A, AR9281]")
20.78
>>> numeric_value("CNc1nc(C)nc(N[C@H]2CCC[C@@H](C(=O)NCc3ccc(C#N)cc3C(F)(F)F)C2)n1 [UNC10302679A, GSK2256294A]")
4.49

###

METHOD DESCRIPTION: Snapshot IV PK in CD1 mice
Type: in vivo
DETAILS: CD1, plasma, mouse, 3.0 mg/kg
PROPERTY MEASURED: half-life (h)

>>> numeric_value("CC(=O)N1CCC(NC(=O)NC23CC4CC(CC(C4)C2)C3)CC1 [UNC10302683A, AR9281]")
0.24
>>> numeric_value("CNc1nc(C)nc(N[C@H]2CCC[C@@H](C(=O)NCc3ccc(C#N)cc3C(F)(F)F)C2)n1 [UNC10302679A, GSK2256294A]")
0.64
>>> numeric_value("c1cn2cc(-c3ccc4cn[nH]c4c3)nc(Nc3ccc(N4CCOCC4)cc3)c2n1 [UNC10302678A, Entospletinib (GS-9973)]")
0.9
>>> numeric_value("O=c1oc2ccccc2cc1-c1cn2cc(Cc3ccc(F)cc3)sc2n1 [UNC10302680A, iMDK]")
1.16
>>> numeric_value("Cl.NC(=O)c1cnc(N[C@@H]2CCCC[C@@H]2N)nc1Nc1cccc(-n2nccn2)c1 [UNC10302682A, P505-15 (PRT06207 HCl)]")
1.64
>>> numeric_value("CCC(=O)N1CCC(NC(=O)Nc2ccc(OC(F)(F)F)cc2)CC1 [UNC10302681A, TPPU]")
13.8

###

TARGET OR TEST SYSTEM: cloned human or rodent CNS receptors, channels, and transporters (PDSP panel) (Homo sapiens)
Construct: expressed in transfected cells
METHOD DESCRIPTION: PDSP GPCR panel primary binding assays at 10 μM
DETAILS: Receptor D4; primary assay, 10 μM
PROPERTY MEASURED: Inhibition 1 (%)

>>> numeric_value("CCCCNc1ncc2c(-c3ccc(CN4CCN(C)CC4)cc3)cn([C@H]3CC[C@H](O)CC3)c2n1 [UNC2025C, UNC2025]")
1.91
>>> numeric_value("c1cn2cc(-c3ccc4cn[nH]c4c3)nc(Nc3ccc(N4CCOCC4)cc3)c2n1 [UNC10302678A, Entospletinib (GS-9973)]")
5.16
>>> numeric_value("Cl.NC(=O)c1cnc(N[C@@H]2CCCC[C@@H]2N)nc1Nc1cccc(-n2nccn2)c1 [UNC10302682A, P505-15 (PRT06207 HCl)]")
7.46
>>> numeric_value("O=c1oc2ccccc2cc1-c1cn2cc(Cc3ccc(F)cc3)sc2n1 [UNC10302680A, iMDK]")
-9.94
